Tested on: Klotho gene expression
Assay: Luciferase reporter assay to evaluate Klotho gene expression changes
Format: cell-based
Details: HEK293 cells/pKlotho_Luc, overnight incubation, luciferase luminescence
From the text: Table 2. Luciferase Reporter Assay to Evaluate Klotho Gene Expression Changes […]
result_type: Activation, % (%)
State just the number; it will be interpreted in %.

# get_value(readout='Activation, %', item= CC1(C)CCC(CNc2ncnc3c2ncn3C2CC2)CC1 [Compound 45] )
59

Queued: C1=C(CCNc2cc(N3CCCC3)ncn2)CCCC1 [Compound 3]
138

Queued: C1=C(CCNc2cc(N3CCCCC3)ncn2)CCCC1 [Compound 6]
98

Queued: C1=C(CCNc2ncnc3scnc23)CCCCC1 [Compound 27]
101

Queued: CCC1(CC)CCCN(c2ncnc3c2ncn3C2CC2)CC1 [Compound 28]
101

Queued: C1=C(CCNc2ncnc3c2ncn3C2CC2)CCC1 [Compound 42]
79

Queued: Clc1cccc(CNc2ncnc3c2ncn3C2CC2)c1 [Compound 34]
102

Queued: C1=C(CCNc2ncnc3c2cnn3-c2ccccc2)CCCCC1 [Compound 22]
96

Queued: CC(C)(CNc1ncnc2c1ncn2C1CC1)C1=CCCCC1 [Compound 44]
58

Queued: C1=C(CCNc2ncnc3sccc23)CCCCC1 [Compound 9]
81
